System: BT-549
Assay: NCI tumour cell line growth inhibition, 48 h
Activity calls are given as the source filed them. Cut-off read from the data, not from the text of the source: active = GI50 up to about 1.1 µM and inactive = higher.
Choose the fitting class; nothing outside active, inactive is accepted.

Look over these answered cases.
>  <molecule>
Nc1nc(N)c2cc(S(=O)(=O)c3ccc4ccccc4c3)ccc2n1

>  <target or system>
BT-549

>  <qualitative label>
inactive

$$$$
>  <molecule>
S=c1ssc2c3ssc(=S)c3n(Cc3ccccc3)c12

>  <target or system>
BT-549

>  <qualitative label>
inactive

$$$$
>  <molecule>
O=[N+]([O-])c1ccc2[nH]c(-c3ccc(Cl)cc3)nc2c1

>  <target or system>
BT-549

>  <qualitative label>
inactive

$$$$
>  <molecule>
CNC(=O)N(C1=NCC(C)S1)c1ccc(C)c(C)c1 (stereo not given)

>  <target or system>
BT-549

>  <qualitative label>
inactive

$$$$

Consider the record given below.
Just curious, what result did COC(=O)c1cc2c(n1S(=O)(=O)c1ccc(C)cc1)C(=O)C(=O)c1[nH]cc(C(=O)OCc3ccccc3)c1-2 get here?
active

Values from ChEMBL document CHEMBL1201862
